Listing: melting point of selected molecules

{"columns": ["Molecule", "melting point"],
 "data": [
  ["CCCc1c2c(c([N+](=O)[O-])c3c(=O)cc(C(=O)OCC)oc13)CC(C(=O)OCC)CC2 (centres undefined)", "164 to 166 °C"],
  ["CCCc1c(OCCCOc2cccc(NC(=O)C(=O)OCC)c2)ccc(C(C)=O)c1O", "52 to 57 °C"],
  ["Cc1c(NC(=O)c2ccc(OCC3CCOC3)cc2)ccc2cc(CNCC(C)(C)C)cnc12 (centres undefined)", "129 °C"]
]}

Prompt line: Value lookup for melting point; key = O=C(C=Cc1ccc(CNC2CCCCC2)cc1)Nc1ccc(-c2ccc(Cl)cc2)cc1
Response line: 247 to 248 °C

Prompt line: Repeat with CC1CNc2nc3c(N)nc4ccccc4c3n21 (centres undefined)
Response line: 265 to 273 °C

Prompt line: Continue with COc1ccc(C(=O)Nc2ccccc2)cc1NS(=O)(=O)c1ccc(F)cc1
Response line: 209 to 211 °C

Prompt line: Same again, this time with CCn1cc(C(=O)O)c(=O)c2cc(F)c(N3CCC(N)C3)c(F)c21 (centres undefined)
Response line: 240 to 242 °C

Prompt line: Consider next the molecule COc1cc(CCC=CC(=O)CCC(=O)O)cc(OC)c1OC in the same way.
Response line: 187 to 189 °C

Prompt line: Now try CCOc1cc(C(CC(=O)OC)N2C(=O)c3cccc(N)c3C2=O)ccc1OC (centres undefined) .
Response line: 134 to 136 °C

====

Measured endpoint: melting point

Prompt line: Please give the measured melting point for this compound: O=C(O)/C=C/c1ccc(-c2nc3c(=O)n(CC4CCCC4)c(=O)n(CC4CCCC4)c3[nH]2)cc1
Response line: > 300 °C

Prompt line: Next entry: Cc1nc2c3c(ccc2n1C)[C@H](O)C[C@H](c1ccccc1)O3 (relative stereo)
Response line: 228 to 229 °C

Prompt line: Similarly, CS(=O)(=O)c1c(F)nc(F)nc1F ?
Response line: 103 to 105 °C

Prompt line: Check CSc1cc(Oc2cccc(C(F)(F)F)c2)nc(C(=O)NC(C)C)c1 too.
Response line: 66 to 69 °C

Prompt line: Record: CCOC(=O)c1ccc(Sc2cc3c(cc2C(C)C)C(C)(C)CCC3(C)C)cc1
Response line: 99 to 100 °C

Prompt line: Another compound to look at: CCOC(=NC(=O)c1cccc(C)c1)N1Cc2ccccc2-c2ccccc2C1
Response line: 102 to 105 °C

====

melting point listing for selected molecules.

{"columns": ["Molecule", "melting point"],
 "data": [
  ["CCc1nc(SC)nn1-c1ccc(N)cc1", "132 °C"],
  ["NS(=O)(=O)c1cc(CCNC(=O)/C=C/c2cccs2)ccc1OCCc1ccccc1", "170 to 174 °C"],
  ["CN(C)C1(c2ccccc2)CCC(CNC(=O)Oc2ccccc2)CC1 (stereo not given)", "108 to 124 °C"],
  ["Cc1ccc(S(=O)(=O)OCC(C)(C)CS(N)(=O)=O)cc1", "59 to 61 °C"]
]}

Here is another molecule to look at.
Prompt line: Given CC(=O)OCC(=O)NCc1cccc(-c2csc(N=C(N)NC(=O)COC(C)=O)n2)n1 , state its recorded melting point.
Response line: 148 to 151 °C

====

Measured endpoint: melting point

For orientation, consider the following solved cases.
{"columns": ["Compound", "melting point"],
 "data": [
  ["Nc1cc(=O)n(C2CCCC2)c2nc(N[C@H]3CC[C@H](O)CC3)ncc12", "246 to 248 °C"],
  ["CN(C)CCc1ccc([N+](=O)[O-])c2[nH]ncc12", "145 to 146 °C"],
  ["Cc1nn(CC(F)F)c(-c2ccc(F)cc2)c1-c1ccc2c(c1)NC(=O)CO2", "168 °C"]
]}

Prompt line: State the recorded melting point for this entry: COc1ccccc1-c1noc2ccc([N+](=O)[O-])cc12
Response line: 170 to 171 °C

Prompt line: Now the same for O=C(O)Cc1ccc2c(c1)C(=O)c1ccccc1CS2
Response line: 96 to 97 °C

====

Measured endpoint: melting point

Consider the worked cases shown below.
{"columns": ["Molecule", "Measured endpoint", "Obs value"],
 "data": [
  ["CC(=O)NC[C@H]1CN(c2ccc(C(=O)c3cnc4cc(C)ccn34)cc2)C(=O)O1", "melting point", "254 to 256 °C"],
  ["NC(=O)c1snnc1C1CC1", "melting point", "163 °C"],
  ["Cc1ccc(N2C(=O)C(O)=C(C(=O)c3ccc(C(C)C)cc3)C2c2ccc(C(C)C)cc2)nn1 (stereo unspecified)", "melting point", "271 °C"],
  ["CC(C)(C)n1nnc(Cc2ccc(CCC(=O)O)cc2)n1", "melting point", "139 to 141 °C"],
  ["CC(C)c1ccc(C(C)C)n1NC1=NCCN1", "melting point", "230 to 232 °C"]
]}

Prompt line: Reported melting point, molecule CCCOC(=O)C1=C(C)NC(C(OC)OC)=C(C(=O)OC)C1c1ccccc1C#N (stereo unspecified) : ____
Response line: 139 to 141 °C

Prompt line: // same read-out, input: COCCCCCCCCCCC(=O)O
Response line: 31 to 32 °C

Prompt line: Now give it for CCN1CCCC1CNC(=O)c1cc(NS(=O)(=O)NC(C)(C)C)c(C)cc1OC (stereo unspecified) too.
Response line: 167 to 168 °C

Prompt line: Same read-out for COc1ccc2cc(Cc3ccccc3)sc2c1 ?
Response line: 60 to 61 °C

Prompt line: Same read-out for Cc1cccc(-c2cncc(Nc3ccc(Cl)cc3)n2)n1 ?
Response line: 186 to 188 °C

Prompt line: Also need CC1(C)CCOc2cc(C(=O)O)ccc21 , thanks.
Response line: 173 to 174 °C

====

# melting point per record follows

Prompt line: Value lookup for melting point; key = Cc1ccc(N2C(=O)C(O)=C(C(=O)c3ccc(C(C)C)cc3)C2c2ccc(C(F)(F)F)cc2)nn1 (stereo not given)
Response line: 252 °C

Prompt line: Param item: CC(C)(C)c1ccc(S(=O)(=O)Nc2cc(Cl)ncn2)cc1
Response line: 225 to 226 °C

Prompt line: Repeat for the following molecule: COc1ccc(-c2cc(=O)[nH]c(=O)[nH]2)cc1OC
Response line: > 300 °C

Prompt line: Let us now turn to O=C1CCC(=O)N1Nc1c(Cl)cc(Cl)cc1Cl
Response line: 114 to 115 °C

Prompt line: Could you do the same for NC(=O)[C@H]1CCc2[nH]c3ccc(F)cc3c2C1 , please?
Response line: 170 to 172 °C

====

Measured endpoint: melting point

{"columns": ["Molecule", "melting point"],
 "data": [
  ["CCc1nc2c(O)cc(C(=O)N(C)C)cc2n1C", "193 to 199 °C"],
  ["COc1cc(CP(=O)(OC)OC)c2c(CP(=O)(OC)OC)cc(OC)cc2c1", "135 to 136 °C"],
  ["CC(C)c1nc(C(C)C)c(/C=C/C=O)c(-c2ccc(F)cc2)c1C=CC=O", "122 to 123 °C"],
  ["CC(C)(OCc1cc(-c2ccc(Cl)cc2)no1)C(=O)O", "130 to 134 °C"],
  ["C#Cc1cccc(Nc2ncnc3ccc(S(=O)(=O)n4ccc(C=CC(=O)OCC)c4)cc23)c1", "154 to 156 °C"]
]}

Prompt line: What does the data say about its melting point? Entry: CN(C)C(=O)c1ccc([N+](=O)[O-])cc1Cl
Response line: 116 to 117 °C

====

Below is a list of entries, each paired with its recorded melting point value.

Recorded results for 10 compounds are shown here.
{"columns": ["Compound", "melting point"],
 "data": [
  ["O[C@H]1CC[C@H](CN2CCC(=C3c4ccc(F)cc4Sc4ccc(C(F)(F)F)cc43)CC2)CC1", "144 to 146 °C"],
  ["CC[C@@H]1NC(C)(C)CO[C@@]1(O)c1cccc(Cl)c1", "160 to 161 °C"],
  ["Cc1cc2c(Oc3cccc(C(F)(F)F)c3)nc(CCC(F)(F)F)nc2s1", "85 °C"],
  ["CCCCCCCCCCOc1ccc(-c2c(C)[nH]c(=O)n2C2CCCCC2)cc1", "137 to 138 °C"],
  ["O=C(NCc1ccc(F)cc1)c1ccnc(N2CCN(C(F)(F)c3ccc(C(F)F)cc3)C2=O)c1", "173 to 175 °C"],
  ["Cn1nc(-c2c(F)cccc2Cl)nc1-c1ccc([N+](=O)[O-])cc1Cl", "144 to 148 °C"],
  ["C=C(C)c1cccc(C(C)(C)NSc2nc3ccccc3s2)c1", "93 to 95 °C"],
  ["Cc1ccc2[nH]c3c(cc(-c4ccc(O)cc4)c(=O)n3C)c2c1", "186 °C"],
  ["Cc1ccc(-c2[nH]c3ccc(Cl)cc3c2-c2ccc(S(C)(=O)=O)cc2)cc1", "238 to 240 °C"],
  ["CCOc1cc(CCCC2OC(=O)NC2=O)ccc1OCc1nc(-c2ccccc2)oc1C (centres undefined)", "129 to 130 °C"]
]}

Prompt line: Item under review: CCCCCCCCCCCC(=O)OC1CC(c2ccccc2)NC(c2ccccc2)C1C (centres undefined) . Reported melting point?
Response line: 56 to 59 °C

Prompt line: Query CN(CC(C)(C)c1ccc(Cl)c(Cl)c1)C(=O)Nc1c(F)cc(F)cc1CCc1cc(C(C)(C)C)c(O)c(C(C)(C)C)c1 next
Response line: 145 to 147 °C

Prompt line: Now give it for O=C(O)CCCCCCCCCCCCCCCCCCCCC(=O)ON1C(=O)CCC1=O too.
Response line: 122 to 124 °C
